Assignment: determine reported mCherry-gated FRET positive cells after MTBD seeds for the given binders.
Target: Tau RD (MTBD) P301S fused to CFP or YFP, in HEK293 Tau RD P301S FRET Biosensor cells (UniProt P10636)
Sequence (P10636 561-689 P618S): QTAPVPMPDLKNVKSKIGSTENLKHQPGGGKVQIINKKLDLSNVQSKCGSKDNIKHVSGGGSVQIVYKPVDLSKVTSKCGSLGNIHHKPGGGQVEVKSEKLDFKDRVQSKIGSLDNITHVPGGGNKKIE
Assay: cell-based or functional assay
Give just the number in %; leave the unit off.

Form: binder = mCherry-VHH Mut5 (VHH, not shown: large carriers) VHH: EVQLQASGGVFVQSGGSLRLSCAASGATSTFDGMGWFRQAPGKEREFVSAISYEQGSYTYYADSVKGRFTISRDNSKNMVYLQMNSLRAEDTASYYCAPAYEGDLYAFDSYGGQGTQVTVSS ; mCherry-gated FRET positive cells after MTBD seeds = 12.1

The recorded mCherry-gated FRET positive cells after MTBD seeds for mCherry-VHH Mut20 (VHH, not shown: large carriers) VHH: EVQLQASGGVFVQSGGSLRLSCAASGATSTFDGMGWFRQAPGKEKEFVSAISYEQGSYTYYADSVKGRFTISRDNSKNMVYLQMNSLRAEDTATYYCAPAYEGDLYAFDSYGEQGTQVTVSS is 11.2

Sample mCherry-VHH Mut14 (VHH, not shown: large carriers) VHH: EVQLQASGGVFVQSGGSLRLSCAASGATSIFDGMGWFRQAPGKEREFVSAISYGQGSYTYYADSVKGRFTISRDNSKNMVYLQMNSLRAEDTATYYCAPAYEGDLYAFDSYGEQGTQVTVSS ; mCherry-gated FRET positive cells after MTBD seeds observed: 12.7

// recorded mCherry-gated FRET positive cells after MTBD seeds for mCherry-VHH Mut1 (VHH, not shown: large carriers) VHH: EVQLQASGGVFVQSGGSLRLSCAASGATSTFDGMGWFRQAPGKEREFVSAISYEQGSYTYYADSVKGRFTISRDNSKNMVYLQMNSLRAEDTATYYCAPAYEGDLYAFDSYGEQGTQVTVSS : 8.2
